Where these numbers come from: patent US4417052A

# Tested on: carrageenin-induced foot edema
# experimentNotes: inhibition of carrageenin-induced foot edema test (C.E.)
# Type: in vivo
# conditionSet: oral, dose 0.08 millimoles/kg; read-out: C.E. percent inhibition
Structures can show the parent of a compound that is named as a salt.
Returns one of Condition met or Condition not met; Condition met when inhibition in vivo at 80 µmol/kg is >= 50%.

// known answers, use as guide
molecule | classification
CC(CN1CCCCC1)c1cccc(C(=O)c2ccccc2)c1 (stereo not drawn) [Example 14A, hydrochloride] | Condition not met
CC(CN1CCNCC1)c1ccc(C(=O)c2ccccc2)cc1.Cl.Cl (stereo not drawn) [Example 24C, dihydrochloride] | Condition not met
CC(CN1CCSCC1)c1ccc(C(=O)c2ccccc2)cc1 (stereo not drawn) [Example 24D, hydrochloride] | Condition met

Now for a further molecule.
Would you say CC(CN1CCCCC1CC1CCCCC1)c1cccc(C(=O)c2ccc(Cl)c(Cl)c2)c1 (stereo not drawn) [Example 20C] shows inhibition in vivo at 80 µmol/kg at minimum 50%?
Condition not met
